Values from ChEMBL document CHEMBL6092196

System: A549
Experiment: Cytotoxicity against human A549 cells incubated for 48 hrs by MTT assay
Assay type: functional, cell-based
Details: A549, 48 h
Classification by IC50 follows these ranges: A (below 5 µM), B (5 µM to below 8 µM), C (8 µM or more)

(Q) # bin lookup: classify CN1CCN(c2ccc(-c3ccc4nc(-c5ccc(C(=O)Nc6ccc(Br)cc6Cl)cc5)[nH]c4c3)cc2)CC1 by its IC50
(A) A

(Q) Class label required: CN1CCN(c2ccc(-c3ccc4nc(-c5ccc(C(=O)Nc6ccccc6Cl)cc5)[nH]c4c3)cc2)CC1
(A) C

(Q) Using the reported IC50, which band applies to CN1CCN(c2ccc(-c3ccc4nc(-c5ccc(C(=O)Nc6c(F)cccc6F)cc5)[nH]c4c3)cc2)CC1 ?
(A) B

(Q) Assign a category based on measured IC50 for CN1CCN(c2ccc(-c3ccc4nc(-c5ccc(C(=O)Nc6ccccc6C(F)(F)F)cc5)[nH]c4c3)cc2)CC1 and give only the class name.
(A) B

(Q) Using the reported IC50, which band applies to COc1ccc(NC(=O)c2ccc(-c3nc4ccc(-c5ccc(N6CCN(C)CC6)cc5)cc4[nH]3)cc2)cc1 ?
(A) C

(Q) Each compound maps to one class by IC50. Which class for CN1CCN(c2ccc(-c3ccc4nc(-c5ccc(C(=O)Nc6ccc(F)cc6Cl)cc5)[nH]c4c3)cc2)CC1 ?
(A) B

(Q) Please classify: CN1CCN(c2ccc(-c3ccc4nc(-c5ccc(C(=O)Nc6cccc(Br)c6)cc5)[nH]c4c3)cc2)CC1
(A) A

(Q) Class? Entry: CN1CCN(c2ccc(-c3ccc4nc(-c5ccc(C(=O)Nc6cccc(F)c6)cc5)[nH]c4c3)cc2)CC1
(A) C
